- SYSTEM NAME: human glucagon receptor (human, UniProt P47871 26-477)
- ASSAY NAME: cell-based or functional assay
Starred links: 1 amine or outer side, 2 acyl side, 3 side chain; linkers in the order of their positions; H or OH if unused. Non-standard residues stand in square brackets, D forms with d. No end group written: not given here. *: point of attachment. ACPP = 2-amino-5-(3-chlorophenyl)pentanoic acid, O=C([C@H](CCCc1cccc(Cl)c1)N[*:1])[*:2]; 2F,4CF3‑APPA = 2-amino-5-(2-fluoro-4-(trifluoromethyl)phenyl)pentanoic acid; 2Cl,4OMe‑APPA = 2-amino-5-(2-chloro-4-methoxyphenyl)pentanoic acid; Bip(2'-Et-4'-OMe) = CCc1cc(OC)ccc1-c1ccc(C[C@H](N)C(=O)O)cc1; Nva(5-(3,5-Me2Ph)) = Cc1cc(C)cc(CCC[C@H](N)C(=O)O)c1; 2F‑APPA = 2-amino-5-(2-fluorophenyl)pentanoic acid; αMePhe(2-F) = C[C@](N)(Cc1ccccc1F)C(=O)O; hhPhe = N[C@@H](CCCc1ccccc1)C(=O)O; aThr = C[C@H](O)[C@H](N)C(=O)O; Ac5c = NC1(C(=O)O)CCCC1; CNB = not defined here; Ac3c = NC1(C(=O)O)CC1; Aib = CC(C)(N)C(=O)O; Moc = COC(=O)*
VALUE KIND: inhibition of cAMP production, 1 µM (pmol/ml/µg prt)

The examples below pair each entry with its known result.
Can you look up the measured inhibition of cAMP production, 1 µM of H[Ac3c]QGTFTSD[Bip(2'-Et-4'-OMe)][Nva(5-(3,5-Me2Ph))] [Seq. ID. No. 22: H-(ACP)-QGTFTSD-Bip(OMe)-(ADMP)] for me? 8

Cool, now Moc-H[Aib]QGT[αMePhe(2-F)]TSD[Bip(2'-Et-4'-OMe)][hhPhe] (also: reduced (CH2) bonds between 9-10 and 10-11) [Seq. ID. No. 194: CH3OCO-H-Aib-QGT-(α-Me-2F-Phe)-TSD-(CH2)-Bip(OMe)-(CH2)-(APPA)] 8

Cool, now H[Aib]QGTFTSD[Bip(2'-Et-4'-OMe)][ACPP] [Seq. ID. No. 19: H-Aib-QGTFTSD-Bip(OMe)-(ACPP)] 0

Cool, now H[Aib][CNB]GTFTSD[Bip(2'-Et-4'-OMe)][2Cl,4OMe‑APPA] (reading uncertain) [Seq. ID. No. 84: H-Aib-(CNB)-GTFTSD-Bip(OMe)-(2Cl,4OMe-APPA)] 0

Cool, now H[Aib][CNB]G[aThr][αMePhe(2-F)]TSD[Bip(2'-Et-4'-OMe)][hhPhe] (reading uncertain) [Seq. ID. No. 110: H-Aib-(CNB)-G-T(allo)-(α-Me-2F-Phe)-TSD-Bip(OMe)-(APPA)] 8

I. H[Aib][CNB]GT[αMePhe(2-F)][aThr]SD[Bip(2'-Et-4'-OMe)][2F‑APPA] (reading uncertain) [Seq. ID. No. 120: H-Aib-(CNB)-GT-(α-Me-2F-Phe)-T(allo)-SD-Bip(OMe)-(2F-APPA)]
II. H[Ac5c]QGTFTSD[Bip(2'-Et-4'-OMe)][Nva(5-(3,5-Me2Ph))] [Seq. ID. No. 26: H-(APP)-QGTFTSD-Bip(OMe)-(ADMP)]
Of I and II , which carries the smaller reported inhibition of cAMP production, 1 µM figure? Response format: the label of the selected entry. I

P. H[Aib][CNB]G[aThr][αMePhe(2-F)]TSD[Bip(2'-Et-4'-OMe)][2F‑APPA] (reading uncertain) [Seq. ID. No. 112: H-Aib-(CNB)-G-T(allo)-(α-Me-2F-Phe)-TSD-Bip(OMe)-(2F-APPA)]
Q. H[Aib]QGTFTSD[Bip(2'-Et-4'-OMe)][2F,4CF3‑APPA] [Seq. ID. No. 65: H-Aib-QGTFTSD-Bip(OMe)-(2F,4CF3-APPA)]
Of P and Q , which carries the smaller reported inhibition of cAMP production, 1 µM figure? Response format: the label of the selected entry. P
